Recorded values, source patent US8034822B2.

SYSTEM_UNDER_TEST: glucokinase (GK) (Homo sapiens, UniProt P35557)
Construct: I.D. No. 1 corresponds to residues 12-465 of glucokinase
Sequence (P35557 with tags, fused parts or gaps isoform P35557-2): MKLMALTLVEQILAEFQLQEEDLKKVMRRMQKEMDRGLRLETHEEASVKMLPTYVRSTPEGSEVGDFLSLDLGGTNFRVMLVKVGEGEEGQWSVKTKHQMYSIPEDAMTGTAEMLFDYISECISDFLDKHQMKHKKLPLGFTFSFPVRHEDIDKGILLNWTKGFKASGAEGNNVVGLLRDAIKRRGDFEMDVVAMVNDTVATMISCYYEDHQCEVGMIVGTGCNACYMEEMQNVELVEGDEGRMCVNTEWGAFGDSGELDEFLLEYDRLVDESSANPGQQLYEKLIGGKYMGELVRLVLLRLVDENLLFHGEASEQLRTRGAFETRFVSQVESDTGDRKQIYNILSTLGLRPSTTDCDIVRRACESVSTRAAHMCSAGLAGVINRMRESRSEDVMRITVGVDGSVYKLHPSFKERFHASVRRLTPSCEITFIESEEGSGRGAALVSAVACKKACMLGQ
PROTOCOL_SUMMARY: enzymatic glucokinase activity assay (ATP consumption, KinaseGlo luminescence)
CONDITIONS_USED: Against GK; Kact = concentration giving 50% of maximal increase in GK activity; 5 μM ATP, 5 mM Glucose, 60 min room temperature; values given as bins; read-out: pKact
pEC50: −log10 of the molar value.
Below, each of the molecules is paired with its reported pEC50 value.
MEASURED_ATTRIBUTE: pEC50

1. CCS(=O)(=O)c1ccc2c(=O)n(C(CC3CCCCC3)C(=O)Nc3ccc(F)cn3)cnc2c1 (centres unmarked) [Compound 71]; 5.80 to 6.00
2. COc1ccc2ncn(C(CC3CCCCC3)C(=O)Nc3ccc(C(N)=O)cn3)c(=O)c2c1 (centres unmarked) [Compound 167]; 6.10 to 6.30
3. COC(=O)c1ccc(NC(=O)C(CC2CCCCC2)n2cnc3c(S(=O)(=O)C(C)C)csc3c2=O)nc1 (centres unmarked) [Compound 104]; 6.10 to 6.30
4. Cc1ccc(NC(=O)C(CC2CCCCC2)n2cnc3c(cnn3C)c2=O)nc1 (centres unmarked) [Compound 110]; ≤ 5.70
5. COC(=O)c1ccc(NC(=O)C(CC2CCCCC2)n2cnc3c(C)cc(Cl)cc3c2=O)nc1 (centres unmarked) [Compound 207]; 5.80 to 6.00
6. O=C(NC1CC1)c1ccc2c(=O)n(C(CC3CCCCC3)C(=O)Nc3ccc(Cl)cn3)cnc2c1 (centres unmarked) [Compound 171]; ≥ 6.40
7. CCS(=O)(=O)c1ccc2c(=O)n(C(CC3CCCCC3)C(=O)Nc3ccc(C(N)=O)cn3)cnc2c1 (centres unmarked) [Compound 81]; ≥ 6.40
8. COC(=O)c1ccc(NC(=O)[C@@H](CC2CCCCC2)n2cnc3c(C(F)(F)F)cccc3c2=O)nc1 [Compound 211]; ≥ 6.40
9. NC(=O)c1ccc(NC(=O)C(CC2CCCCC2)n2cnc3cc(S(=O)(=O)C4CCCC4)ccc3c2=O)nc1 (centres unmarked) [Compound 80]; ≥ 6.40
10. Cc1ccc(NC(=O)C(CC2CCCCC2)n2cnc3ccc(F)cc3c2=O)nc1 (centres unmarked) [Compound 192]; ≤ 5.70
11. O=C(Nc1ccc(Cl)cn1)C(CC1CCCCC1)n1cnc2cc(S(=O)(=O)C3CC3)ccc2c1=O (centres unmarked) [Compound 75]; 6.10 to 6.30
12. O=C(Nc1nccs1)C(CC1CCCCC1)n1cnc2c(Cl)cccc2c1=O (centres unmarked) [Compound 139]; ≤ 5.70
13. O=C(NC1CC1)c1ccc2c(=O)n(C(CC3CCOCC3)C(=O)Nc3ncc(Cl)s3)cnc2c1 (centres unmarked) [Compound 180]; ≤ 5.70
14. CS(=O)(=O)c1ccc2ncn(C(CC3CCCCC3)C(=O)Nc3ccc(Cl)cn3)c(=O)c2c1 (centres unmarked) [Compound 79]; 6.10 to 6.30
15. COC(=O)c1ccc(NC(=O)C(CC2CCCCC2)n2cnc3cc(S(=O)(=O)CC4CC4)ccc3c2=O)nc1 (centres unmarked) [Compound 90]; 6.10 to 6.30
16. CN(C)CCNC(=O)c1ccc2c(=O)n(C(CC3CCCCC3)C(=O)Nc3ncc(Cl)s3)c(=O)[nH]c2c1 (centres unmarked) [Compound 177]; 6.10 to 6.30
17. CN1CCC(CNC(=O)c2ccc3c(=O)n(C(CC4CCCCC4)C(=O)Nc4ncc(Cl)s4)c(=O)[nH]c3c2)CC1 (centres unmarked) [Compound 179]; 6.10 to 6.30
18. CCS(=O)(=O)c1ccc2c(=O)n(C(CC3CCCCC3)C(=O)Nc3ccc(Cl)cn3)cnc2c1 (centres unmarked) [Compound 72]; 6.10 to 6.30
19. CNC(=O)c1ccc2c(=O)n(C(CC3CCCCC3)C(=O)Nc3ncc(Cl)s3)cnc2c1 (centres unmarked) [Compound 175]; ≥ 6.40
20. O=C(Nc1ccc(Cl)cn1)C(CC1CCCCC1)n1cnc2ccc(F)cc2c1=O (centres unmarked) [Compound 160]; 5.80 to 6.00
